experiment: Cytotoxicity against mock-infected human CEM cells assessed as growth inhibition
Assay type: cell-based, CCRF-CEM
readout: CC50

>>> recorded_result("CC(C)OC(=O)OCOP(=O)(CO[C@H](C)Cn1cnc2c(N)ncnc21)OCOC(=O)OC(C)C")
"> 25 µM"
>>> recorded_result("CC(C)OC(=O)OCOP(=S)(CO[C@H](C)Cn1cnc2c(N)ncnc21)OCOC(=O)OC(C)C")
"> 25 µM"
>>> recorded_result("CC(C)(C)C(=O)OCOP(=S)(COCCn1cnc2c(N)ncnc21)OCOC(=O)C(C)(C)C")
"2 µM"

Consider now this further compound.
Find the measured CC50 of CC(C)(C)C(=O)OCOP(=O)(COCCn1cnc2c(N)ncnc21)OCOC(=O)C(C)(C)C and report it. 1.6 µM
